# ASSAY: primary screen for suppressors of beta-catenin knockout HCT116 cell growth, colon tumor, human (AID 818)
# TEST_PARAMETERS: CellTiter-Glo, 60 h, at 10 µM
About 2,100 (1.5%) of roughly 140,000 compounds were called active.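 The calls were made as follows: active = viability at or under a set limit, the compound median less 4 SD (cut at about 6% in these data); inactive = the rest.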 Only a selection was taken, and actives are over-represented in it overall.
Could you please pick one outcome from this set? active, inactive

Record excerpt, results attached:
{"COMPOUND": "CC1=C(C)CC(C(=O)NNC(=O)c2ccccc2O)C(C(=O)O)C1 (centres undefined)", "CLASS_LABEL": "active"}
{"COMPOUND": "COc1ccc(OC)c(-c2c(=O)n(OCc3ccccc3Br)c3ccccc3[n+]2[O-])c1", "CLASS_LABEL": "inactive"}
{"COMPOUND": "O=C(NCCCO)/C(=C\\C=C\\c1ccccc1)NC(=O)c1ccccc1Cl", "CLASS_LABEL": "inactive"}

Next, consider the following compound.
Short answer needed: outcome of this test for CC1=C(C)CC(C(=O)NNC(=O)c2csc3c2CCC(C(C)(C)C)C3)C(C(=O)O)C1 (centres undefined) ? inactive
